Origin of values: ChEMBL document CHEMBL1149672

# System: NCI-H460
# experimental details: Cytotoxicity against high NQO1 protein expressing human H460 cells by MTT assay
# Type: functional, cell-based
Where a name gives a salt, the structure may show the parent alone.
endpoint name: log10(IC50) (log10 of the value in nM)

{"compound": "C[n+]1c2ccccc2cc2[n-]c3cc([N+](=O)[O-])c(Br)cc3c21", "test result": 2.58}
{"compound": "C[n+]1c2ccccc2cc2[n-]c3c([N+](=O)[O-])cc(Br)cc3c21", "test result": 2.77}
{"compound": "C[n+]1c2ccc(Cl)cc2cc2[nH]c3ccc([N+](=O)[O-])cc3c21", "test result": 2.66}
{"compound": "Cn1c(/C=C/CO)c(CO)c2c1C(=O)C=C(N1CC1)C2=O [APAZIQUONE]", "test result": 0.77}
{"compound": "C[n+]1c2ccccc2cc2[n-]c3c([N+](=O)[O-])c(Cl)ccc3c21", "test result": 3.27}
{"compound": "C[n+]1c2ccccc2cc2[n-]c3ccccc3c21 [CRYPTOLEPINE HYDROCHLORIDE]", "test result": 3.16}
